B1: IQUB (parent)
chain: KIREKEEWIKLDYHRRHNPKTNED

- Variants of: B1
- Procedure summary: protein stability index of a GFP-peptide fusion (GPS, HEK-293T) (PSI 1-6); higher = more stable;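 also: lentivirally expressed fusions sorted by FACS into six bins by GFP to DsRed ratio, PSI derived from sequencing read proportions per bin multiplied by bin number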
- Condition summary: c terminus: a fixed tail appended
Assay endpoint: protein stability index
Returns: the value as a bare number; no unit string appended.

Look over these answered cases.
1. R16W
4.22
2. K1G
5.15
3. K5T
4.21

Request: Identify the reported protein stability index for the following entry. `K20R`
Result: 4.66

Request: Tell me measured protein stability index for `W8Q` please.
Result: 5.58

Request: Given `R16L` , respond with its protein stability index.
Result: 3.86

Request: Let me know recorded protein stability index for `N18S` , thanks.
Result: 4.91

Request: Tell me its protein stability index given `I2C` as the entry.
Result: 4.62
